Tested on: MALME-3M melanoma
EXPERIMENT DESCRIPTION: NCI-60 one-dose screen, 48 h (100 = growth as untreated, 0 = no growth, -100 = all killed)
CONDITION DETAILS: 10 µM unless noted
Compounds without any hit were thinned out: in the full panel of roughly 83,000, 20% have a hit. Calls of active or inactive are those of the source. How the source made its calls: active means growth percent below 10; inactive means the rest.
READOUT LABEL: growth

Solved cases (5 shown):
# COMPOUND, growth
data = [
    ("COc1cccc(/C=C2\\CCc3ccccc3C2=O)c1", "80.7% (inactive)"),
    ("O=C(c1ccccc1)[C@@H](c1ccccc1)[C@]1(O)C(=O)Nc2ccccc21", "98.2% (inactive)"),
    ("Cc1ccc(NC(=O)c2ccc(Nc3ncnc4c3cnn4-c3cccc(F)c3)cc2)cc1", "101% (inactive)"),
    ("COc1ccc(S(=O)(=O)NC2c3ccccc3CC2O)cc1OC (stereo not given)", "110% (inactive)"),
    ("COC12C=C/C(=C(/C(=O)OCc3ccccn3)C(=O)CCCCCCCCC3(OC)C=C/C(=C(/C(=O)OCc4ccccn4)C(=O)CCCCCCCC1)O3)O2", "-60.1% (active)"),
]

Q: Can you look up the measured growth of `Nc1ccc(Cl)c2c(=O)c3ccccc3[nH]c12` for me?
A: 109% (inactive)

Q: I am curious: what growth value has been reported for CCOC(=O)CC1CSC(N/N=C(/C)c2cccc(C(F)(F)F)c2)=N1 (stereo not given) ?
A: 95.3% (inactive)

Q: # get_value(readout='growth', item= `O=C(Nc1ccc(Oc2cccc(F)c2)c(Cl)c1)c1cnccn1` )
A: 51.4% (inactive)

Q: For `COc1cc2nc3cc([N+](=O)[O-])ccc3c(NCCCNCCO)c2cc1OC` , what is its reported growth?
A: -82.6% (active)

Q: Value lookup for growth; key = `O=C(O)c1cc2ccccc2s1`
A: 130% (inactive)
